Target: calf intestinal alkaline phosphatase
Experiment: Alkaline phosphatase inhibition
Assay type: biochemical
Conditions: Table 8
pIC50: −log10 of the molar value.
PARAMETER MEASURED: pIC50

Prompt: Answer with the recorded pIC50 of Cc1occc(=O)c1[O-].Cc1occc(=O)c1[O-].[O]=[V+2] [BMLOV, Bis(maltolato)oxovanadium (IV)] only.
Response: < 3.30

---

Tested on: HCT116(VM)46
Assay: In vitro cytotoxicity, XTT assay
Settings: hct116(vm46) cells, 72 h
PARAMETER MEASURED: IC50 (nM)
Kindly provide the numeric value in nM only, without the unit symbol.

Prompt: Kindly indicate its recorded IC50. Item: [Na+].[O]=[V-]12([O][O]1)[O][O]2.c1cnc2c(c1)ccc1cccnc12
Response: 2000

---

Target: PTP1B (Homo sapiens)
Construct: purchased Upstate Biotechnology, Lake Placid, N.Y
Sequence (P18031 1-435): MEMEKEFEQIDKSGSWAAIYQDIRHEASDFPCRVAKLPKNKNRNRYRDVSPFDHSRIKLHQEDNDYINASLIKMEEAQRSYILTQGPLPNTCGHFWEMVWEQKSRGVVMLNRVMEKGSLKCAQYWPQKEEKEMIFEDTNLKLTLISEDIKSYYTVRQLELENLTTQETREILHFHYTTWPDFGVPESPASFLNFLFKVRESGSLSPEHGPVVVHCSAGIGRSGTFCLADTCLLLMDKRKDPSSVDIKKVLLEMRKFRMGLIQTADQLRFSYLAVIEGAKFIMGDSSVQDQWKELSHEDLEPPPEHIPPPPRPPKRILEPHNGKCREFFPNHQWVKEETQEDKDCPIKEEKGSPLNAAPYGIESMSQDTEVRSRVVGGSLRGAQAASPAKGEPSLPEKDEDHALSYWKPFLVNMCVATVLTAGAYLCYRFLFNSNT
Assay: Phosphotyrosine phosphatase PTP1B inhibition
Assay type: biochemical
PARAMETER MEASURED: IC50

Prompt: Lab note: PTP1B (Homo sapiens) assay, enter IC50 for Cc1occc(=O)c1[O-].Cc1occc(=O)c1[O-].[O]=[V+2] [BMLOV, Bis(maltolato)oxovanadium (IV)] here
Response: ~25 nM

---

Tested on: A2780/Tax22
Experiment: In vitro cytotoxicity, XTT assay
Settings: a2780/tax22 cells, 72 h
PARAMETER MEASURED: IC50 (µM)
Your answer should be a plain number; it is taken to be in µM.

Prompt: In one line, give reported IC50 of the entry [Na+].[O]=[V-]12([O][O]1)[O][O]2.c1cnc2c(c1)ccc1cccnc12 [pV(phen)] .
Response: 7.5

---

Target: PTP1B (Homo sapiens, UniProt P18031)
Construct: purchased Upstate Biotechnology, Lake Placid, N.Y
Test: Phosphotyrosine phosphatase PTP1B inhibition
Assay type: biochemical
Details: Table 1; phosphorylated myelin basic protein substrate
PARAMETER MEASURED: IC50 (nM)
Numbers only; they are read as nM.

Prompt: Report measured IC50; entry is Cc1occc(=O)c1[O-].Cc1occc(=O)c1[O-].[O]=[V+2]
Response: 26

---

Test system: HCT116(VP)35
Experiment: In vitro cytotoxicity, XTT assay
Details: hct116(vp35) cells, 72 h
PARAMETER MEASURED: pIC50
Hey, just a heads up that pIC50 is the negative log base 10 of the concentration in molar.

Prompt: Give reported pIC50 value for [Na+].[O]=[V-]12([O][O]1)[O][O]2.c1cnc2c(c1)ccc1cccnc12
Response: 5.14
